# test_system: T. cruzi glucokinase (TcGlcK) (Trypanosoma cruzi, UniProt Q4E4E1)
# Construct: precedes the start methionine and the 9-residue segment VGKKQKAQL at the C-terminal region was not included; made in house; host or cells: E. coli BL21(DE3)
# Sequence (Q4E4E1 entry or part of it): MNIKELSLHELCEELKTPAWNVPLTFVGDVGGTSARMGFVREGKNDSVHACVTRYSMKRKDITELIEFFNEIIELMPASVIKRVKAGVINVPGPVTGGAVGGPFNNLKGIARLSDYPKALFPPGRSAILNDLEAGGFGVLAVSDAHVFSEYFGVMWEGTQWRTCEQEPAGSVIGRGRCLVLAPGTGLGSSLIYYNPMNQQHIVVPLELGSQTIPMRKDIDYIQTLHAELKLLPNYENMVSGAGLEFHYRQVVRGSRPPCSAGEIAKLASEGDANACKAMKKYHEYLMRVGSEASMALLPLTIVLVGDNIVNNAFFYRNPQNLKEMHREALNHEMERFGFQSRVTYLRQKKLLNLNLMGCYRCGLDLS
# method_notes: Two-enzyme coupled colorimetric glucokinase activity assay (G6PDH/NADPH), TcGlcK
# Type: biochemical
measure_name: Ki (nM)

molecule	test_system	unit	observed_value
O=C(CCc1ccc(O)cc1)N[C@H]1C(O)O[C@H](CO)[C@@H](O)[C@@H]1O (mixture of isomers) [HPOP-GlcN]	T. cruzi glucokinase (TcGlcK) (Trypanosoma cruzi, UniProt Q4E4E1)	nM	1300
O=C(N[C@H]1C(O)O[C@H](CO)[C@@H](O)[C@@H]1O)OCc1ccccc1 (mixture of isomers) [CBZ-GlcN, 2-N-carboxybenzyl-2-deoxy-D-glucosamine]	T. cruzi glucokinase (TcGlcK) (Trypanosoma cruzi, UniProt Q4E4E1)	nM	710

----------
Measured pIC50 by item
# Test system: T. cruzi (Tulahuen strain) intracellular amastigote parasite cells
# method_notes: T. cruzi in-vitro growth inhibition assay, amastigotes co-cultured in NIH/3T3 fibroblasts
# Format: cell-based
# test_context: Trypanosoma cruzi, NIH3T3, co-cultured within NIH/3T3 fibroblast cells, triplicate
pIC50: −log10 of the molar value.

compound	pIC50
O=C(N[C@H]1C(O)O[C@H](CO)[C@@H](O)[C@@H]1O)OCC1=Cc2ccccc2S1(=O)=O (mixture of isomers)	< 4.40
O=C(CCc1ccc(O)cc1)N[C@H]1C(O)O[C@H](CO)[C@@H](O)[C@@H]1O (mixture of isomers)	< 4.40
O=C(N[C@H]1C(O)O[C@H](CO)[C@@H](O)[C@@H]1O)c1ccccc1 (stereo partly shown)	4.79
O=C(N[C@H]1C(O)O[C@H](CO)[C@@H](O)[C@@H]1O)OCc1ccccc1 (mixture of isomers)	< 4.40
